Attribute: concentration in the apical compartment after 48 h
Test system: PBCEC monolayer
Format: in vitro ADME, porcine
Settings: 200 nM in both compartments, without probenecid, n = 3
State just the number; it will be interpreted in nM.

Known results for compounds:
{"Compound": "C[C@@H]1Cc2c(Cl)cc(C(=O)O)c(O)c2C(=O)O1", "Numeric result": 268}
{"Compound": "CC1=C2C(=CO[C@H](C)[C@H]2C)C(O)=C(C(=O)O)C1=O", "Numeric result": 266}
{"Compound": "Cc1c(O)c(C(=O)O)c(O)c2c1[C@H](C)[C@@H](C)OC2=O [DHCIT, dihydrocitrinone]", "Numeric result": 278}

**Q:** concentration in the apical compartment after 48 h for C[C@@H]1Cc2c(Cl)cc(C(=O)N[C@@H](Cc3ccccc3)C(=O)O)c(O)c2C(=O)O1 ?
**A:** 275
